Parameter Stimulation Index, FXa generation assay, 1600 nM OA antibody: see the listing below.
- assaySystem: human plasma-derived Factor IXa (human, UniProt P00740 47-191; P00740 227-461)
- Sequence (P00740 47-191, chain 1 of 2): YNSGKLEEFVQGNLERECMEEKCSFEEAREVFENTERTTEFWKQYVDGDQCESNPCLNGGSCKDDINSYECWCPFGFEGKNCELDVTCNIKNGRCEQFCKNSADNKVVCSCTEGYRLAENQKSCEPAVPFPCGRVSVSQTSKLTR
- Sequence (P00740 227-461, chain 2 of 2): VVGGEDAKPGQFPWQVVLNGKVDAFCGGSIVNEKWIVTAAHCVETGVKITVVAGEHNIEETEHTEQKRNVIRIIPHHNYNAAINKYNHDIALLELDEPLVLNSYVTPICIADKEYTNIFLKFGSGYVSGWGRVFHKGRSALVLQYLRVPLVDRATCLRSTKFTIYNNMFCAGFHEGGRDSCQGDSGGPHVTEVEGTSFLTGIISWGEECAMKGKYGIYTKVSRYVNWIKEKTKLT
- methodSummary: cell-based or functional assay
assayEndpoint: Stimulation Index, FXa generation assay, 1600 nM OA antibody (fold)

binder: one-armed (OA) mAb11-1501 (antibody, V domains shown) VH: EVQLVESGGGLVQPGRSLRLSCAASGFTFDDYAMHWVRQVPGKGLEWVSGISWRGDIGGYVKSVKGRFTISRDNAKNSLYLQMNSLRAEDTALYYCVKSYGSGSFYNAFDSWGQGTLVTVSS VL: DIQMTQSPSTLSASVGDRVTITCRASQSISSWLAWYQQKPGKAPKFLIYKASKLDRGTPSRFSGSGSGTEFTLTISSLQPDDFATYYCLEYSSYIRTFGQGTKVEIK
observedMeasurement: 10300
//
binder: one-armed (OA) mAb11-1502 (antibody, V domains shown) VH: EVQLVESGGGLVQPGRSLRLSCAASGFTFDDYAMHWVRQVPGKGLEWVSGISWRGDIGGYVKSVKGRFTISRDNAKNSLYLQMNSLRAEDTALYYCVKSYGSGSFYNAFDSWGQGTLVTVSS VL: DIQMTQSPSTLSASVGDRVTITCRASQSISSWLAWYQQKPGKAPKLLIYKASKLDRGTPSRFSGSGSGTEFTLTISSLQPDDFATYYCLEYSSYIRTFGQGTKVEIK
observedMeasurement: 5850
//
binder: one-armed (OA) mAb01-9373 (antibody, V domains shown) VH: EVQLVESGGGLVQPGRSLKLSCAASGFTFHDYAMHWVRQVPGKGLEWVSGISWRGDIIGYVDSVKGRFTISRDNAKNSLYLQLNSLRAEDTALYYCVKSYGSGSFYNAFDSWGQGTLVTVSS VL: DIQMTQSPSTLSASAGDEVTITCRASKSISSWLAWYQQKPGKAPRFLIYKASRLDRGTPSRFSGSGSGTEFTLTISHLQPDDFATYYCLEYSSYIRTFGQGTKVEIK
observedMeasurement: 1390
//
binder: one-armed (OA) mAb01-9696 (antibody, V domains shown) VH: EVQLVESGGGLVQPGRSLKLSCAASGFTFDDYAMHWVRQVPGKGLEWVSGISWRGDIGGYVDSVKGRFTISRDNAKNSLYLQLNSLRAEDTALYYCVKSYGSGSFYNAFDSWGQGTLVTVSS VL: DIQMTQSPSTLSASAGDRVTITCRASQSISSWLAWYQQKPGKAPKFLIYKASRLDRGTPSRFSGSGSGTEFSLTISSLQPDDFATYYCLEYSSYIRTFGQGTKVEIK
observedMeasurement: 5170
//
binder: one-armed (OA) mAb11-1499 (antibody, V domains shown) VH: EVQLVESGGGLVQPGRSLRLSCAASGFTFHDYAMHWVRQVPGKGLEWVSGISWRGDIGGYVKSVKGRFTISRDNAKNSLYLQMNSLRAEDTALYYCVKSYGSGSFYNAFDSWGQGTLVTVSS VL: DIQMTQSPSTLSASVGDRVTITCRASQSISSWLAWYQQKPGKAPKFLIYKASKLDRGTPSRFSGSGSGTEFTLTISSLQPDDFATYYCLEYSSYIRTFGQGTKVEIK
observedMeasurement: 9010
//
binder: one-armed (OA) mAb11-0173 (antibody, V domains shown) VH: EVQLVESGGGLVQPGRSLRLSCAASGFTFHDYAMHWVRQAPGKGLEWVSGISWKGDIGGYVDSVKGRFTISRDNAKNSLYLQMNSLRAEDTALYYCAKSYGSGSFYNAFDSWGQGTLVTVSS VL: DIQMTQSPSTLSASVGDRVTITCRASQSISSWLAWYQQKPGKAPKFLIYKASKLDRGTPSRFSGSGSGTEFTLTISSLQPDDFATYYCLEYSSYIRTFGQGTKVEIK
observedMeasurement: 8480
//
binder: one-armed (OA) mAb11-1204 (antibody, V domains shown) VH: EVQLVESGGGLVQPGRSLRLSCAASGFTFHDYAMHWVRQVPGKGLEWVSGISWRGDIGGYVKSVKGRFTISRDNAKNSLYLQMNSLRAEDTALYYCVKSYGSGSFYNAFDSWGQGTLVTVSS VL: DIQMTQSPSTLSASVGDEVTITCRASQSISSWLAWYQQKPGKAPKFLIYKASKLERGTPSRFSGSGSGTEFSLTISSLQPDDFATYYCLEYSSYIRTFGQGTKVEIK
observedMeasurement: 9100
